Data provenance: BindingDB's records for doi:10.1016/j.bmcl.2017.09.009

The entries below are paired with their reported pIC50.
# experiment_summary: Inhibition of ABCG2 in human H460/MX20 cells assessed as potentiation of mitoxantrone induced antiproliferative activity by measuring mitoxantrone IC50 at 1 uM preincubated for 2 hrs followed by mitoxantrone addition measured after 72 hrs by MTT assay (Rvb = 6.161 +/- 0.172 microM)
pIC50: −log10 of the molar value.
measurement_kind: pIC50

- structure_smiles: "COc1cccc(-n2nnc(-c3ccccc3NC(=O)c3cccc([N+](=O)[O-])c3)n2)c1"
  numeric_value: 5.74
- structure_smiles: "COc1ccc2c3c([nH]c2c1)[C@H](C=C(C)C)N1C(=O)[C@@H]2CCCN2C(=O)[C@@H]1C3"
  numeric_value: 6.21
- structure_smiles: "CCCc1ccc(NC(=O)c2ccccc2NC(=O)Nc2ccc(OC)cc2)cc1"
  numeric_value: 5.47
- structure_smiles: "CCCc1ccc(NC(=O)c2ccccc2NC(=O)Nc2ccc(Br)cc2)cc1"
  numeric_value: 5.58
- structure_smiles: "CCCc1ccc(NC(=O)c2ccccc2NC(=O)Nc2cccc([N+](=O)[O-])c2)cc1"
  numeric_value: 6.19
- structure_smiles: "COc1cccc(-n2nnc(-c3ccccc3NC(=O)c3ccc(NC(C)=O)cc3)n2)c1"
  numeric_value: 5.87
- structure_smiles: "CCCc1ccc(NC(=O)c2ccccc2NC(=O)c2ccc([N+](=O)[O-])cc2)cc1"
  numeric_value: 6.08
- structure_smiles: "COc1cccc(-n2nnc(-c3ccccc3NC(=O)c3ccc(N=[N+]=[N-])cc3)n2)c1"
  numeric_value: 5.79
- structure_smiles: "COc1ccc(-n2nnc(-c3ccccc3NC(=O)c3ccc([N+](=O)[O-])cc3)n2)cc1"
  numeric_value: 6.23
